I'd appreciate it if you could supply z-score values for the items below.
measured-target: Homeobox protein Hox-A13 (Mus musculus)
assay-protocol: disruptors of Hoxa13 oligonucleotide interaction – biochemical, fluorescence polarization, labeled oligonucleotide, primary screen (AID 1185)
measurement-parameters: Hoxa13:DNA binding, 15 min, higher = more signal, called active from +8 up or from −8 down
// return just the number, without any unit appended

Task: Tell me the measured z-score of "COCCCNC(=O)[C@@]1(Sc2ccc(C)cc2)CC(=O)N(Cc2ccccc2)[C@@H]1c1ccc(CO)cc1" , please.
Result: -2.81

Task: Next: "COc1ccc([Si](C)(C)[C@@H]2[C@@H](CC(=O)N3Cc4ccccc4C[C@H]3CO)O[C@]3(C(=O)N(Cc4cccc(N5C(=O)COc6ccccc65)c4)c4ccccc43)[C@H]2C)cc1"
Result: -0.616

Task: Entry to check: "C=CC[C@]1(C(=O)NCCN2CCOCC2)N=C(c2ccc(OCCCO)cc2)O[C@H]1c1ccccc1N=[N+]=[N-]"
Result: -3.35

Task: Here is the next molecule: "NC(=O)NCC#Cc1ccc2c(c1)[C@]1(C(=O)N2)[C@H](c2ccccc2OCCO)N2[C@H](c3ccccc3)[C@H](c3ccccc3)OC(=O)[C@H]2[C@@H]1C(=O)N1CCCCCCC1"
Result: 3.45

Task: What do you get for "C[N+](C)(C)CCCC[C@@H]1NC(=O)[C@H]2C[C@@H](C(=O)O)[C@@H](c3cccc(OCCO)c3)N2C1=O" ?
Result: -0.304

Task: Query "COc1ccc([Si](C)(C)[C@@H]2[C@@H](CCO)O[C@]3(C(=O)N(Cc4cccc(N(C=O)c5ccccc5)c4)c4ccccc43)[C@H]2C)cc1" next
Result: -0.551

====

assay-protocol: hepatitis C replication reporter changes, two-sided – Huh7 cells, luciferase reporter, HCV replication inhibitor project, primary screen (AID 1109);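 note: huh7 hepatoma cells harbouring a luciferase neomycin HCV replicon reporter; luciferase luminescence as measure of HCV replicon replication; test concentration not given here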
measurement-parameters: Huh7 HCV replicon luciferase reporter, 48 h; higher = more signal
parameter: z-score

Task: Returns the measured z-score for the input compound. Input: "Cc1ccccc1/C=C/C=O"
Result: 0.19

Task: What about "COCCOC(=O)N1C(=O)[C@@]2(c3cc(C#CC4=CCCCC4)ccc31)[C@H](C(=O)N1CCN(c3ncccn3)CC1)[C@H]1C(=O)O[C@H](c3ccccc3)[C@H](c3ccccc3)N1[C@@H]2c1ccc(OCCO)cc1" ?
Result: -1.46

Task: Okay, and "C=CC[C@@]1(C(=O)NCCN2CCOCC2)N=C(c2ccc(OCCCO)cc2)O[C@@H]1c1ccccc1CN=[N+]=[N-]" ?
Result: -1.74

Task: For CN1C(=O)C2C=CC(C(O)C=Cc3ccc([N+](=O)[O-])cc3)N(N3CCCCC3)C2C1=O (stereo unspecified) then?
Result: 0.789

Task: Same read-out for "C=CC[C@]1(C(=O)O)N=C(c2ccc(OCCCO)cc2)O[C@H]1c1ccccc1CN=[N+]=[N-]" ?
Result: -0.439

Task: Input "CC[C@@H]1C=C(C(=O)O)[C@H](c2ccc(C(C)C)cc2)N1S(=O)(=O)c1ccc(C)cc1"
Result: -0.868

Task: Again, but for "COc1ccc([Si](C)(C)[C@H]2[C@H](CC(=O)N3Cc4ccccc4C[C@H]3CO)O[C@@]3(C(=O)N(Cc4cccc(I)c4)c4ccccc43)[C@@H]2C)cc1"
Result: -3.8

Task: Same question for "C[n+]1ccc2ccc(O)cc2c1" please.
Result: -0.337

Task: Check CCN(CC)c1ccc(N2CC=CC34O[C@@H]5/C=C\CCC(C)OC(=O)C5[C@H]3C(=O)N(CCCCCCO)[C@@H]4C2=O)cc1 (stereo partly specified) too.
Result: -0.693

Task: Request: "C=C(C(=O)CC[C@@H](OC(=O)c1cccnc1)c1ccc(OCCO)cc1)C(C)C"
Result: -4.49

Task: Next: "[N-]=[N+]=NCc1ccccc1C[C@]1(C(=O)NCc2ccccc2)COC(c2ccc(OCCCO)cc2)=N1"
Result: -3.59

Task: Next entry: "CCCCC(=O)N(Cc1ccccc1F)[C@@H]1CC(C(=O)NCCO)=C[C@H](Oc2c(I)cc(CO)cc2OC)[C@H]1O"
Result: -1.06

Task: Now give it for O=C(NCC(O)CO)[C@@]1(Cc2ccccc2)N=C(c2ccc(OCCCO)cc2)O[C@H]1c1ccccc1 (stereo partly specified) too.
Result: -0.99

Task: Also "COc1ccc([Si](C)(C)[C@@H]2[C@@H](CCn3cc([C@H](O)c4ccccc4)nn3)O[C@]3(C(=O)N(C)c4ccccc43)[C@H]2C)cc1" , if possible.
Result: -2.32

Task: Try this compound next: "CN(C)CCCC[C@@H]1NC(=O)[C@@H]2C[C@H](C(=O)NCc3ccc(F)cc3)[C@H](c3cccc(OCCO)c3)N2C1=O"
Result: 0.679

Task: Would you mind doing "COc1c(C)cc(-c2cc3c(c(-c4ccccc4)n2)[Si](C(C)C)(C(C)C)O[C@H]3c2ccccc2)cc1C" as well?
Result: -0.526
